# credit: patent US12404249B2

# IC50 values compiled below
target: STAT3 (Homo sapiens, UniProt P40763); construct: endogenous in cells; host or cells: LNCaP (human prostate cancer) stably carrying pSTAT3-TA-luc reporter plasmid; experiment: STAT3 activation inhibition assay (reporter gene assay, LNcaP stable cell line, IL-6 stimulated); type: cell-based; settings: LNcaP stable cell line [plasmid STAT3-TA-luc], IL-6 10 ng/mL, 48 hours, luciferase activity; read-out: IC50 (μM) pSTAT3
Sequence (P40763 whole entry): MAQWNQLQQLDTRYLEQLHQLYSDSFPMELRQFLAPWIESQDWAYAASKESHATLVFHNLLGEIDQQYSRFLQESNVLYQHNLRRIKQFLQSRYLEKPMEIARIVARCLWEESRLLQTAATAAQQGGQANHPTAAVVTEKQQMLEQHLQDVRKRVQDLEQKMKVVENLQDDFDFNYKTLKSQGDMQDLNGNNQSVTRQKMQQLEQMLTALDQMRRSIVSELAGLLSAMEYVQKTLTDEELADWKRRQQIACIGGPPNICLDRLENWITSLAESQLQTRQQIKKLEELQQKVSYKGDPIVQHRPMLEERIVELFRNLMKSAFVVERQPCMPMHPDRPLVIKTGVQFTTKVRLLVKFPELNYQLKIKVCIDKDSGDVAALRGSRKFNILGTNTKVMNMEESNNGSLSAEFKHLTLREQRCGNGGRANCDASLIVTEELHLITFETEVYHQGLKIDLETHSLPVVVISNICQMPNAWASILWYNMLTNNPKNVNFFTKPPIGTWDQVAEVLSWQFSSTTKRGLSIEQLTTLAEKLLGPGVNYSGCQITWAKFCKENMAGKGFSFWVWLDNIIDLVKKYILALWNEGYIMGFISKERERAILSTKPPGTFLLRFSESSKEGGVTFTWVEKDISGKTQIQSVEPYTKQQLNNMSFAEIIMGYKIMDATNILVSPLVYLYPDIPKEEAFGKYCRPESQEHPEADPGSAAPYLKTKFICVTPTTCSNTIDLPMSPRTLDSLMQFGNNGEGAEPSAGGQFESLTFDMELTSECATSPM
Use µM as the unit, but write only the number.

CS(=O)(=O)N(O)c1ccc(CCNc2cc(Cl)nc3ccccc23)cc1    0.85

Query block: What value of IC50 has been recorded for this entry: `O=[N+]([O-])c1ccc(CCNc2nc(Cl)nc3ncccc23)cc1`
Result block: 4.4

Query block: What value of IC50 has been recorded for this entry: `O=[N+]([O-])c1ccc(CCNc2cncc3ccccc23)cc1`
Result block: 12.1

Query block: What value of IC50 has been recorded for this entry: `O=[N+]([O-])c1ccc(CCNc2nc(Cl)nc3ccccc23)cc1`
Result block: 0.21

Query block: What value of IC50 has been recorded for this entry: `CS(=O)(=O)Nc1ccc(CCNc2ccnc3ccc(F)cc23)cc1`
Result block: 2.3

----------
test system: prostate cancer cell line (LNCap); assay: Cell growth inhibition assay (Celltiter Glo); format: cell-based; conditions: Homo sapiens, LNCap cells, 120 hours incubation
Parameter class (string): assigned from measured IC50. Ranges: bottom end = under 2 µM, midrange = from 2 µM up to 10 µM, top end = 10 µM and over

The examples below pair each entry with its known result.
CS(=O)(=O)Nc1ccc(CCNc2ccnc3ccc(F)cc23)cc1    midrange
O=C(c1ccc2nc(Cl)cc(NCCc3ccc([N+](=O)[O-])cc3)c2c1)N1CCOCC1    top end
CS(=O)(=O)Nc1ccc(CCNc2ccnc3cc(OC(F)(F)F)ccc23)cc1    midrange
COc1cc(NCCc2ccc(NS(C)(=O)=O)cc2)c2ccccc2n1    midrange
CCOC(=O)COc1ccc2nc(Cl)cc(NCCc3ccc([N+](=O)[O-])cc3)c2c1    top end
CS(=O)(=O)Nc1ccc(CCNc2ncc(Cl)c3ccccc23)cc1    top end
CS(=O)(=O)Nc1ccc(CCNc2nc(Cl)nc3ccccc23)cc1    bottom end
CS(=O)(=O)Nc1ccc(CCNc2cc(Cl)nc3ccc(F)cc23)cc1    bottom end

Query block: Which of the defined bands does the recorded IC50 of `O=[N+]([O-])c1ccc(CCNc2cc(Cl)nc3cccc(F)c23)cc1` sit within?
Result block: midrange

Query block: Which of the defined bands does the recorded IC50 of `O=[N+]([O-])c1ccc(CCNc2nc(C(F)(F)F)nc3ccccc23)cc1` sit within?
Result block: top end

Query block: Which of the defined bands does the recorded IC50 of `NC(=O)COc1ccc2nc(Cl)cc(NCCc3ccc([N+](=O)[O-])cc3)c2c1` sit within?
Result block: top end

Query block: Which of the defined bands does the recorded IC50 of `O=[N+]([O-])c1ccc(CCNc2nc(Cl)nc3[nH]cnc23)cc1` sit within?
Result block: top end

Query block: Which of the defined bands does the recorded IC50 of `O=[N+]([O-])c1ccc(CCNc2cc(Cl)nc3ccc(Cl)cc23)cc1` sit within?
Result block: top end

Query block: Which of the defined bands does the recorded IC50 of CNc1cc(NCCc2ccc([N+](=O)[O-])cc2)c2ccccc2n1 [Example 51, 2,2,2-trifluoroacetate] sit within?
Result block: top end

Query block: Which of the defined bands does the recorded IC50 of `O=[N+]([O-])c1ccc(CCNc2ncnc3ccc(F)cc23)cc1` sit within?
Result block: bottom end

Query block: Which of the defined bands does the recorded IC50 of `O=C(c1ccccc1)c1ccc2nc(Cl)cc(NCCc3ccc([N+](=O)[O-])cc3)c2c1` sit within?
Result block: top end

Query block: Which of the defined bands does the recorded IC50 of `O=S(=O)(Nc1ccc(CCNc2ncnc3ccccc23)cc1)C(F)(F)F` sit within?
Result block: top end

Query block: Which of the defined bands does the recorded IC50 of `O=[N+]([O-])c1ccc(CCNc2cc(Cl)nc3ccccc23)cc1` sit within?
Result block: midrange
